- PROTOCOL: Toxicokinetic study in rats: TK study, plasma AT7519 concentration
- Format: in vivo, Male SD (Sprague Dawley) rats
- MEASUREMENT SETUP: male, Sprague-Dawley, iv; rat plasma, I.V., 0.039 mmol/kg
PROPERTY MEASURED: concentration at 2 min (ng/mL)
Answer in ng/mL, number only, no unit symbol.

Consider the compound O=C(NC1CCNCC1)c1n[nH]cc1NC(=O)c1c(Cl)cccc1Cl [AT7519] and give its measured concentration at 2 min.
19100

----------
- PROTOCOL: Toxicokinetic study in rats: TK study, plasma AT7519 concentration
- Format: in vivo, Male SD (Sprague Dawley) rats
- MEASUREMENT SETUP: male, Sprague-Dawley, iv; rat plasma, I.V., 0.039 mmol/kg
PROPERTY MEASURED: concentration at 1 h (ng/mL)
Reply with just the number (in ng/mL).

Return reported concentration at 1 h; argument: `O=C(NC1CCNCC1)c1n[nH]cc1NC(=O)c1c(Cl)cccc1Cl`
814

----------
- PROTOCOL: Toxicokinetic study in rats: TK study, plasma AT7519 concentration
- Assay type: in vivo, Male SD (Sprague Dawley) rats
- MEASUREMENT SETUP: male, Sprague-Dawley, iv; rat plasma, I.V., 0.039 mmol/kg
- Procedure: Male SD (Sprague Dawley) rats of body weight 220 to 240 g were maintained under standard conditions and randomized into three groups. On day 0 (initial day), all the animals were given one of the three compounds intravenously. Dose was calculated in mmol/kg. (b) TK study: The remaining animals were randomized into three groups, with 6 in each group. […] TK analysis was conducted as follows: Blood samples were collected at time points of 2 min, 10 min, 1 h, 2 h, and 6 h into sample tube (heparinized).
PROPERTY MEASURED: concentration at 6 h (ng/mL)
// return numeric value only (unit: ng/mL, not printed)

Recorded concentration at 6 h of O=C(NC1CCNCC1)c1n[nH]cc1NC(=O)c1c(Cl)cccc1Cl [AT7519] , please.
148

----------
- PROTOCOL: Toxicokinetic study in rats: TK study, plasma AT7519 concentration
- Format: in vivo, Male SD (Sprague Dawley) rats
- MEASUREMENT SETUP: male, Sprague-Dawley, iv; rat plasma, I.V., 0.039 mmol/kg
PROPERTY MEASURED: concentration at 4 h (ng/mL)
Note: unit ng/mL is implicit; provide only the numeric part.

Give the measured concentration at 4 h of O=C(NC1CCNCC1)c1n[nH]cc1NC(=O)c1c(Cl)cccc1Cl [AT7519] .
554

----------
- PROTOCOL: Toxicokinetic study in rats: TK study, plasma AT7519 concentration
- Assay type: in vivo, Male SD (Sprague Dawley) rats
- MEASUREMENT SETUP: male, Sprague-Dawley, iv; rat plasma, I.V., 0.039 mmol/kg
PROPERTY MEASURED: concentration at 10 min (ng/mL)
Answer format: numeric, ng/mL implied, no suffix.

Endpoint output: concentration at 10 min of O=C(NC1CCNCC1)c1n[nH]cc1NC(=O)c1c(Cl)cccc1Cl [AT7519] . Value?
4600

----------
- PROTOCOL: Toxicity study in mice: toxicokinetics, plasma AT7519 concentration
- Assay type: in vivo, Male mice (BABL/c)
- MEASUREMENT SETUP: male, BALB/c, mouse, plasma, iv, I.V., 0.031 mmol/kg
PROPERTY MEASURED: concentration at 4 h
Record the result as a number with its unit.

# query: concentration at 4 h of entry `O=C(NC1CCNCC1)c1n[nH]cc1NC(=O)c1c(Cl)cccc1Cl`
47 ng/mL
